The origin of these recorded values is ChEMBL document CHEMBL2086373.

# assay.summary: […]-phosphate buffered saline partition coefficient, log D after 5 hrs by LC-UV analysis at pH 7.4
# Assay type: physicochemical
# assay.setup: octan-1-ol/phosphate buffered saline
readout: logD at 5 h
Reply with the value as a number alone.

Reported logD at 5 h for Fc1ccc(CNc2cccc3[nH]c(C(F)(F)F)nc23)cc1 was 2

* * *

# assay.summary: Efflux ratio of apparent permeability across human Caco2 cells at 10 uM after 60 mins
# Assay type: ADME, cell-based
# assay.setup: Caco-2
readout: efflux ratio at 1 h, 10 µM

I: Fc1ccc(CNc2cccc3[nH]c(C(F)(F)F)nc23)cc1
II: c1ccn2c(Sc3ncnc4sccc34)nnc2c1
Inquiry: For the pair I and II , which entry has the numerically smaller recorded efflux ratio at 1 h, 10 µM? State the label of the item chosen.
Reply text: II
(II: 0.28, I: 0.43)
